- Test system: U2OS
- Assay details: Multiplex assay against U2OS
- Type: toxicity, cell-based
- Run conditions: human, 24 h, 1 µM, compound concentration 1 uM, replicate 1
Readout type: Population Fragmented Nuclei (%)

{"columns": ["Compound", "Assay target", "Readout type", "Experimental value"],
 "data": [
  ["C[C@@H]1CC(=O)Nc2cccc(-c3ccc4c(c3)c(-c3cnn(C)c3)nn4C)c2N1", "U2OS", "Population Fragmented Nuclei (%)", 20],
  ["COc1ccc2[nH]c(I)c(CCNC(C)=O)c2c1", "U2OS", "Population Fragmented Nuclei (%)", 16],
  ["CCC(=O)OCC(=O)[C@@]1(OC(=O)CC)[C@@H](C)C[C@H]2[C@@H]3CCC4=CC(=O)C=C[C@]4(C)[C@@]3(Cl)[C@@H](O)C[C@@]21C [BECLOMETHASONE DIPROPIONATE]", "U2OS", "Population Fragmented Nuclei (%)", 21],
  ["O=C(O)CCC/C=C\\CC1C(O)CC(O)C1/C=C/C(O)COc1cccc(Cl)c1 (configuration not stated)", "U2OS", "Population Fragmented Nuclei (%)", 24],
  ["Cc1cc(=O)n(C)c2cc(N3C(=O)CC[C@H](NS(=O)(=O)CC(C)C)[C@H]3c3ccc(Cl)cc3)ccc12", "U2OS", "Population Fragmented Nuclei (%)", 20],
  ["Cn1cc(C(=O)OCC2CCN(CCNS(C)(=O)=O)CC2)c2ccccc21", "U2OS", "Population Fragmented Nuclei (%)", 26],
  ["Cl.Cl.OCCOCCN1CCN(C(c2ccccc2)c2ccc(Cl)cc2)CC1 (configuration not stated) [HYDROXYZINE HYDROCHLORIDE]", "U2OS", "Population Fragmented Nuclei (%)", 25],
  ["Cc1cc(-c2ccc3c(c2)CC[C@H]3N2CC3(CCN(C(=O)Cc4cn5cc(C)sc5n4)CC3)C2)ncn1", "U2OS", "Population Fragmented Nuclei (%)", 25],
  ["CCc1nn2c(C)cc(C)nc2c1Cc1ccc(-c2nnc(C3CCNCC3)o2)cc1", "U2OS", "Population Fragmented Nuclei (%)", 26],
  ["Cc1cc(O)c(-c2ccc([C@@H](C)CN(C)C)cc2)c2c1[nH]c(=O)c1sccc12", "U2OS", "Population Fragmented Nuclei (%)", 43],
  ["Nc1nc(CC(=O)Nc2ccc(CCNC[C@H](O)c3ccccc3)cc2)cs1", "U2OS", "Population Fragmented Nuclei (%)", 21],
  ["CC(C)C[C@H](CO)Nc1nc(S[C@@H](C)c2ccccc2)nc2nc(N)sc12", "U2OS", "Population Fragmented Nuclei (%)", 20]
]}

====

- System: HEK-293T
- Assay details: Multiplex assay against HEK293T
- Assay type: toxicity, cell-based
- Run conditions: human, 12 h, 10 µM, compound concentration 10 uM, replicate 1
Non-standard residues stand in square brackets, D forms with d. Residues, ends and D or L forms follow the SMILES beside them.
Criterion met if Population Pyknosed Nuclei (%) is below 20%. Criterion not met if not; exact matches included in Criterion not met.

{"columns": ["Compound", "Class name"],
 "data": [
  ["CC(C)C[C@@H]1NC(=O)[C@@H](C(C)C)NC(=O)[C@@H]2CCCN2C(=O)[C@@H](CC(=O)O)NC(=O)[C@@H](Cc2c[nH]c3ccccc23)NC1=O [BQ-123] (cyclo(L[dW][dD]P[dV]))", "Criterion met"],
  ["C=CCN1C[C@H](C(=O)N(CCCN(C)C)C(=O)NCC)C[C@@H]2c3cccc4[nH]cc(c34)C[C@H]21 [CABERGOLINE]", "Criterion met"],
  ["CC(F)(F)CN1CCOc2c(nn(-c3ccccc3Cl)c2-c2ccc(Cl)cc2)C1=O", "Criterion not met"],
  ["Cc1sc2c(c1C)C(c1ccc(Cl)cc1)=N[C@H](CC(=O)OC(C)(C)C)c1nnc(C)n1-2", "Criterion met"],
  ["Cc1cc(NC(=O)NCCN2CCC(O)(Cc3ccccc3)CC2)c2ccccc2n1 [PALOSURAN]", "Criterion met"],
  ["COc1cc2nc(N3CCN(C(=O)COc4c(OC)cccc4C(C)C)CC3)nc(N)c2cc1OC.Cl.Cl", "Criterion met"],
  ["C[C@H](NC(=O)CNC(=O)c1cccc(Cl)c1)c1ccccc1", "Criterion met"],
  ["Cl.Cl.OCCOCCN1CCN(C(c2ccccc2)c2ccc(Cl)cc2)CC1 (centres undefined) [HYDROXYZINE HYDROCHLORIDE]", "Criterion met"],
  ["C[C@@H]1CC(=O)Nc2cccc(-c3ccc4c(c3)c(-c3cnn(C)c3)nn4C)c2N1", "Criterion met"],
  ["Nc1nc(-c2ccco2)c2cnn(Cc3ccccc3F)c2n1", "Criterion met"],
  ["Cc1cc(=O)n(C)c2cc(N3C(=O)CC[C@H](NS(=O)(=O)CC(C)C)[C@H]3c3ccc(Cl)cc3)ccc12", "Criterion not met"],
  ["COC(c1ccccc1)(c1ccccc1)[C@H](Oc1nc(C)cc(C)n1)C(=O)O [AMBRISENTAN]", "Criterion met"],
  ["CN(C)C/C=C/C(=O)Nc1ccc(C(=O)N2CCCC(Nc3ncc(Cl)c(-c4c[nH]c5ccccc45)n3)C2)cc1 (centres undefined)", "Criterion not met"],
  ["CCCCC[C@H](O)/C=C/[C@H]1[C@H](O)CC(=O)[C@@H]1CCCCCCC(=O)O [ALPROSTADIL]", "Criterion met"],
  ["COc1ccc2c(c1OCc1ccccc1)C[C@@H](C(=O)O)N(C(=O)C(c1ccccc1)c1ccccc1)C2 [OLODANRIGAN]", "Criterion met"],
  ["COc1cc(OC2CCN(C(C)=O)CC2)ccc1C(=O)N1CCC(N2C(=O)OCc3ccccc32)CC1", "Criterion met"],
  ["COc1c(Nc2ccc(S(C)(=O)=O)nc2C)ncnc1OC1CCN(C(=O)OC(C)C)CC1 [ADP-597]", "Criterion met"],
  ["Cc1c(Cc2ccc3ccccc3n2)c2cc(F)ccc2n1CC(=O)O [TIMAPIPRANT]", "Criterion met"],
  ["COc1cc(C(=O)N2CC[C@@H](O)[C@@H](N)C2)cc2nc(-c3cc4ccccc4n3CC3CC3)n(C)c12.Cl", "Criterion not met"],
  ["Cc1nn(C)c2nc(NNC(=O)Nc3cc(Cl)nc(Cl)c3)cc(C(C)C)c12", "Criterion not met"],
  ["OCCCNc1cc(-c2ccnc(Nc3cccc(Cl)c3)n2)ccn1", "Criterion not met"],
  ["CCC(=O)OCC(=O)[C@@]1(OC(=O)CC)[C@@H](C)C[C@H]2[C@@H]3CCC4=CC(=O)C=C[C@]4(C)[C@@]3(Cl)[C@@H](O)C[C@@]21C [BECLOMETHASONE DIPROPIONATE]", "Criterion not met"],
  ["Nc1nc(CC(=O)Nc2ccc(CCNC[C@H](O)c3ccccc3)cc2)cs1 [MIRABEGRON]", "Criterion met"],
  ["Cn1cc(C(=O)OCC2CCN(CCNS(C)(=O)=O)CC2)c2ccccc21", "Criterion met"],
  ["CCCCCCNC(=O)Nc1ccc(S(=O)(=O)Nc2ccc(CCNC[C@H](O)COc3ccc(O)cc3)cc2)cc1 [L-755507]", "Criterion met"],
  ["CC(C)C[C@H](CO)Nc1nc(S[C@@H](C)c2ccccc2)nc2nc(N)sc12 [AZD-8797]", "Criterion met"],
  ["CCn1c(-c2nc3cc(C(=O)N4CCCC(N)C4)ccc3n2C)cc2ccccc21.Cl (centres undefined)", "Criterion met"],
  ["O=c1ccc2ccc(OCCCCN3CCN(c4cccc5sccc45)CC3)cc2[nH]1 [BREXPIPRAZOLE]", "Criterion not met"],
  ["CN(C)C(=O)Cn1cc(-c2ccc(-c3nnc4ccccn34)cc2)cn1", "Criterion met"],
  ["CC(C)(C)c1ccc(CSc2cnn(C(C)(C)C)c(=O)c2Cl)cc1 [PYRIDABEN]", "Criterion met"],
  ["CN1CCN2c3ccccc3Cc3ccccc3C2C1.Cl (centres undefined) [MIANSERIN HYDROCHLORIDE]", "Criterion met"],
  ["O=C(Nc1cc(-c2ccccc2)nn1-c1ccccc1F)c1ccc([N+](=O)[O-])cc1", "Criterion met"],
  ["CN1CCN(c2ccc(Nc3c4ccccc4nc4ccccc34)cc2)CC1.Cl.Cl.O", "Criterion met"]
]}
